- ASSAY_TARGET: YTHDC1 YTH domain (Homo sapiens, UniProt Q96MU7 345-509)
- MEASUREMENT_PROTOCOL: ITC
pKd: −log10 of the molar value.
Some binders, each annotated with its measured pKd.

- BINDER: "GGCGCAUCGGCGCC (structured_RNA, m6A at position 6) [(m6A)UCG Xist tetraloop hairpin]"
  pKd: 5.52
- BINDER: "GGCGUAUCGGCGCC (structured_RNA, m6A at position 6) [UG-mismatch (m6A)UCG Xist hairpin]"
  pKd: 5.69
- BINDER: "CCAUCG (ssRNA, m6A at position 3) [CC(m6A)UCG hexamer]"
  pKd: 5.90
